Cited source for all entries: ChEMBL document CHEMBL3885861

Listed here: items and their measured ALP.
- Species: Rattus norvegicus
- experiment notes: Open TG-GATES - Regimen: Single
- Format: toxicity, organism-based, Sprague-Dawley
- Set-up: regimen Single, gender Male, age 6 weeks
- reported conditions: in vivo, po, 0 mg/kg, 9 h, tissue Plasma, route gavage, dose level Control
attribute measured: ALP

{"compound": "O=C(O)c1cn(C2CC2)c2cc(N3CCNCC3)c(F)cc2c1=O", "observed result": "766 IU/L"}
{"compound": "O=C(O)c1cc(/N=N/c2ccc(S(=O)(=O)Nc3ccccn3)cc2)ccc1O", "observed result": "765.6 IU/L"}
{"compound": "Clc1ccccc1CN1CCc2sccc2C1", "observed result": "871.4 IU/L"}
{"compound": "NC(=O)N/N=C/c1ccc([N+](=O)[O-])o1", "observed result": "1214.2 IU/L"}
{"compound": "CSc1ccc2c(c1)N(CCC1CCCCN1C)c1ccccc1S2 (configuration not stated)", "observed result": "724 IU/L"}
{"compound": "NC(=O)N1c2ccccc2C=Cc2ccccc21 [CARBAMAZEPINE]", "observed result": "824.8 IU/L"}
{"compound": "CCc1cc(C(N)=S)ccn1 [ETHIONAMIDE]", "observed result": "759.2 IU/L"}
{"compound": "CN(C)CCC=C1c2ccccc2CCc2ccccc21", "observed result": "1549.8 IU/L"}
{"compound": "COc1ccc(Cc2nccc3cc(OC)c(OC)cc23)cc1OC", "observed result": "1489.8 IU/L"}
{"compound": "Cn1c(=O)c2[nH]cnc2n(C)c1=O.O", "observed result": "1444.4 IU/L"}
{"compound": "C[C@H](CS)C(=O)N1CCC[C@H]1C(=O)O", "observed result": "868 IU/L"}
{"compound": "CC(=O)Oc1ccccc1C(=O)O", "observed result": "795.2 IU/L"}
